# System: SLA-2*05:02
# METHOD: Peptide-MHC class I complex stability, scintillation proximity assay (SPA)
# Design: species or system pig
# MEASUREMENT_SETUP: biotinylated recombinant SLA heavy chain, 125I-β2m, excess unlabeled β2m, read every 40 min, number only if t1/2 ≥ 0.5 h, '-' = not stably binding
# Description: The stability of the selected 198 peptides in complex with relevant SLA class I molecules and β2m was determined using a scintillation proximity assay (SPA), as previously described (Harndahl et al., [2011]). […]
Attribute: Binder (t1/2 ≥ 0.5 h): half-life of peptide-SLA-2*05:02 complex

What measured Binder (t1/2 ≥ 0.5 h): half-life of peptide-SLA-2*05:02 complex goes with FLHSLESGPSV [IDO23, porcine IDO-derived 9-11mer peptide] ? 36 min

What measured Binder (t1/2 ≥ 0.5 h): half-life of peptide-SLA-2*05:02 complex goes with EVEKLATLSI [IDO20, porcine IDO-derived 9-11mer peptide] ? 42 min

What measured Binder (t1/2 ≥ 0.5 h): half-life of peptide-SLA-2*05:02 complex goes with AIAKNLPELI [IDO3, porcine IDO-derived 9-11mer peptide] ? 54 min

What measured Binder (t1/2 ≥ 0.5 h): half-life of peptide-SLA-2*05:02 complex goes with EIAAASAIKVI [IDO16, porcine IDO-derived 9-11mer peptide] ? 750 min

What measured Binder (t1/2 ≥ 0.5 h): half-life of peptide-SLA-2*05:02 complex goes with LSYPDTDVIL [RhoC36, porcine RhoC-derived 9-11mer peptide] ? 36 min

----------
# System: SLA-2*05:02
# METHOD: Peptide-MHC class I complex stability, scintillation proximity assay (SPA)
# Parameters: species or system pig
# MEASUREMENT_SETUP: biotinylated recombinant SLA heavy chain, 125I-β2m, excess unlabeled β2m, read every 40 min, number only if t1/2 ≥ 0.5 h, '-' = not stably binding
Attribute: Binder (t1/2 ≥ 0.5 h): half-life of peptide-SLA-2*05:02 complex

Some sequences with recorded Binder (t1/2 ≥ 0.5 h): half-life of peptide-SLA-2*05:02 complex:
[
  {
    "SEQUENCE_DATA": "ELPHPYDAWI [IDO18, porcine IDO-derived 9-11mer peptide]",
    "VALUE_OBSERVED": "5.8 h"
  },
  {
    "SEQUENCE_DATA": "ENIPEKWTPEV [RhoC18, porcine RhoC-derived 9-11mer peptide]",
    "VALUE_OBSERVED": "1.5 h"
  }
]

What measured Binder (t1/2 ≥ 0.5 h): half-life of peptide-SLA-2*05:02 complex goes with ENIPEKWTP [RhoC17, porcine RhoC-derived 9-11mer peptide] ? 1.1 h

----------
# Tested on: SLA-1*07:02
# METHOD: Peptide-MHC class I complex stability, scintillation proximity assay (SPA)
# Design: species or system pig
# MEASUREMENT_SETUP: biotinylated recombinant SLA heavy chain, 125I-β2m, excess unlabeled β2m, read every 40 min, number only if t1/2 ≥ 0.5 h, '-' = not stably binding
# strict inequality: Binder (t1/2 ≥ 0.5 h): half-life of peptide-SLA-1*07:02 complex < 1 h yields condition met, everything else yields condition not met

[
  {
    "SEQUENCE_DATA": "YPDTDVILM [RhoC58, porcine RhoC-derived 9-11mer peptide]",
    "LABEL_CLASS": "condition not met"
  },
  {
    "SEQUENCE_DATA": "PPAHRNFLH [IDO97, porcine IDO-derived 9-11mer peptide]",
    "LABEL_CLASS": "condition not met"
  },
  {
    "SEQUENCE_DATA": "YPDTDVILMCF [RhoC59, porcine RhoC-derived 9-11mer peptide]",
    "LABEL_CLASS": "condition met"
  },
  {
    "SEQUENCE_DATA": "NPLEELPHPY [IDO86, porcine IDO-derived 9-11mer peptide]",
    "LABEL_CLASS": "condition not met"
  },
  {
    "SEQUENCE_DATA": "KVLPRNIAIPY [IDO63, porcine IDO-derived 9-11mer peptide]",
    "LABEL_CLASS": "condition met"
  }
]

Hi there! Is Binder (t1/2 ≥ 0.5 h): half-life of peptide-SLA-1*07:02 complex for MANRISAFGY [RhoC39, porcine RhoC-derived 9-11mer peptide] below 1 h, do you know? condition not met

Hi there! Is Binder (t1/2 ≥ 0.5 h): half-life of peptide-SLA-1*07:02 complex for EVFHQIHEY [IDO21, porcine IDO-derived 9-11mer peptide] below 1 h, do you know? condition not met

Hi there! Is Binder (t1/2 ≥ 0.5 h): half-life of peptide-SLA-1*07:02 complex for PLLSEGLLY [IDO95, porcine IDO-derived 9-11mer peptide] below 1 h, do you know? condition met

Hi there! Is Binder (t1/2 ≥ 0.5 h): half-life of peptide-SLA-1*07:02 complex for CPNVPIILV [RhoC5, porcine RhoC-derived 9-11mer peptide] below 1 h, do you know? condition met

These measurements were taken from paper PMC4584933.
